Would you kindly list normalized growth for each of these compounds?
Test: chemical genetic growth profiling, strain panel (AID 1159580);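 further: tested at 20 µM; growth read once vehicle control cultures reached saturation at 30 °C; 1 = growth at the plate median or of vehicle wells; lower values mean less growth of the strain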
Conditions: S. cerevisiae deletion strains, growth OD, locus YHR094C, strain hxt1, stronger effect = lower value
The campaign covered roughly 5,500 compounds. About 2,000 (36%) were called active. About 18% were inconclusive and are not listed. This is one part of the list.
// no unit string in output, number only

Ask: Form field: reported normalized growth of CC(=O)O[C@@H]1CC(=O)[C@@]2(C)C(CC(=O)[C@]3(C)C2CC[C@@]2(C)[C@H](c4ccoc4)OC(=O)C4OC423)C1(C)C (some centres not stated)
Result: 1

Ask: // query: "CCc1cc(C(N)=S)ccn1"
Result: 0.987

Ask: Proceed to "CC1(C)O[C@H]2CC(=O)OC[C@]23[C@H]2CC[C@@]4(C)[C@H](c5ccoc5)OC(=O)[C@H]5O[C@]54[C@]2(C)C(=O)C[C@@H]13"
Result: 0.984

Ask: Also check CC1(C)C(=O)C=C[C@@]2(C)C1C[C@@H](O)[C@]1(C)C2CC[C@@]2(C)[C@H](c3ccoc3)OC(=O)[C@H]3O[C@]321 (some centres not stated)
Result: 0.978

Ask: Another: CC1(C)C2CC(=O)[C@]3(C)C(CC[C@@]4(C)[C@H](c5ccoc5)OC(=O)C5OC543)[C@@]2(C)[C@@H](O)C[C@H]1O (some centres not stated)
Result: 0.982

Ask: One more compound: CC1(C)C(=O)C=C[C@@]2(C)C1C=C[C@]1(C)C2CC[C@@]2(C)[C@H](c3ccoc3)OC(=O)C3OC321 (some centres not stated)
Result: 0.989

Ask: Proceed to CC1(C)C(=O)C=C[C@@]2(C)C1CC(=O)[C@]1(C)C2CC[C@@]2(C)[C@H](c3ccoc3)OC(=O)[C@H]3O[C@]321 (some centres not stated)
Result: 1.02
